Collected IC50 values appear next to each entry.
- SUBJECT_OF_TEST: Glycogen synthase kinase-3 beta (Homo sapiens)
- Sequence (P49841 whole entry): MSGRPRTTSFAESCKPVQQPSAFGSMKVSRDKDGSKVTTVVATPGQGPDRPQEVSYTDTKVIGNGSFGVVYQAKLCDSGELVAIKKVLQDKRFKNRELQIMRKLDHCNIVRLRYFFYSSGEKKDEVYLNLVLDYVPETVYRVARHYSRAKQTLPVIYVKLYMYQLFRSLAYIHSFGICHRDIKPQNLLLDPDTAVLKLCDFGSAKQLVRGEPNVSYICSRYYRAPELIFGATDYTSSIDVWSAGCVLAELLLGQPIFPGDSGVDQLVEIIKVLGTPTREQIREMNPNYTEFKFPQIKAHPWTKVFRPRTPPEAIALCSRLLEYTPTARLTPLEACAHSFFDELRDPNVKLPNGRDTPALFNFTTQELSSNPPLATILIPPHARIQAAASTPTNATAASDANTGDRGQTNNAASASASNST

Example entries and their recorded answers appear below.
• CC1(C)CC(=O)C2=C(C1)NC1=C(CN=N1)C21CCN(S(=O)(=O)c2cn3c(n2)CCCC3)CC1 = 100 to 1000 nM
• CC[C@@]1(c2cccc(-c3ccnc4ccccc34)c2)C2=CN=NC2NC2=C1C(=O)CC(C)(C)C2 (stereo not given in full) = < 100 nM
• CC[C@]1(c2cccc(-c3c4c(cn3C)CCCC4)c2)C2=CN=NC2NC2=C1C(=O)NC(C)(C)C2 (stereo not given in full) = 100 to 1000 nM
• CC[C@@]1(c2ccccc2)C2=CN=NC2NC2=C1C(=O)[C@@H](F)C(C)(C)C2 (stereo not given in full) [US20250313563, Compound 957403] = 1000 to 5000 nM

Qu. Tell me reported IC50 for CCC1(c2cccc(-c3cncn3C(C)C)c2)C2=CN=NC2NC2=C1C(=O)CC(C)(C)C2 (stereo not given) , tested with Glycogen synthase kinase-3 beta (Homo sapiens).
Ans. < 100 nM

---

The following molecules each carry a recorded IC50 for Glycogen synthase kinase-3 alpha (Homo sapiens).

• CCC1(c2ccccc2)C2=C(N=NC2)NC2=C1C(=O)CC(C)(C(F)(F)F)C2 (stereo not given) [US20250313563, Compound 816796] = 100 to 1000 nM
• Cn1cc(CN2CC3(C2)C2=C(N=NC2)NC2=C3C(=O)CC(C)(C)C2)cn1 [US20250313563, Compound 929439] = > 5000 nM
• CCC1(c2cccc(-c3ccnc(OC(F)F)c3)c2)C2=CN=NC2NC2=C1C(=O)CC(C)(C)C2 (stereo not given) [US20250313563, Compound 932629] = < 100 nM

Qu. Looking for the measured IC50 of CC1(C)CC(=O)C2=C(C1)NC1=C(CN=N1)C21COC2(CN(C(=O)C3(C)CCCC3)C2)C1 (stereo not given) [US20250313563, Compound 947307] , can you help?
Ans. < 100 nM

Qu. Which IC50 value is on record for CC[C@]1(c2cccc(C(F)(F)F)c2)C2=C(N=NC2)NC2=C1C(=O)NC2(C)C [US20250313563, Compound 913451] ?
Ans. < 100 nM

---

- SUBJECT_OF_TEST: UniProt:P49840
OBSERVATION_TYPE: IC50

Qu. Test system UniProt:P49840; read-out IC50; what value for Cc1c(S(=O)(=O)N2CCC3(CC2)C2=C(N=NC2)NC2=C3C(=O)CC(C)(C)C2)cnn1C ?
Ans. < 0.1 µM

Qu. For the record CC[C@]1(c2cccc([C@@H]3CCOC3)c2)C2=CN=NC2NC2=C1C(=O)CC(C)(C)C2 (stereo partly drawn) , what value of IC50 is listed for UniProt:P49840?
Ans. < 0.1 µM

Qu. Quick check: IC50 on UniProt:P49840, item Cn1cc([C@H]2CC[C@@]3(CC2)C2=C(N=NC2)NC2=C3C(=O)CC(C)(C)C2)cn1 ?
Ans. 1 to 5 µM

Qu. What IC50 appears in the records for this molecule with UniProt:P49840? CC[C@]1(c2cccc(-c3ccnc(C)c3)c2)C2=C(CC(C)(C)NC2=O)NC2N=NC(C(F)(F)F)=C21 (stereo partly drawn)
Ans. 1 to 5 µM

Qu. Kindly state the measured IC50 obtained for CC[C@]1(c2cccc(N(C)c3cccc(C)n3)c2)C2=CN=NC2NC2=C1C(=O)CC(C)(C)C2 (stereo partly drawn) with UniProt:P49840.
Ans. > 5 µM

Qu. Hi! What's the reported IC50 for CC[C@]1(c2ccccc2)C2=C(N=NC2)NC2=C1C(=O)[C@H]1CC[C@@H]2C1 on UniProt:P49840?
Ans. > 5 µM

Qu. Hi! What's the reported IC50 for CC[C@@]1(c2ccccc2)C2=CN=NC2NC2=C1C(=O)[C@@H](C)C[C@H]2C (stereo partly drawn) on UniProt:P49840?
Ans. > 5 µM

Qu. Identify the measured IC50 of CCC1(c2cccc(-c3cnn(C)c3)c2)C2=CN=NC2NC2=C1C(=O)CC(C)(C)C2 (stereo not drawn) for UniProt:P49840.
Ans. < 0.1 µM
